Values from PubChem BioAssay (EPA / NIEHS)

- Read-out: Interleukin-8 (IL8), CXCL8 (gene 3576)
- test-method-notes: BSK_LPS_IL8: BioMAP Diversity Plus: LPS Assay for Interleukin-8 (IL8) Biomarker Activity (AID 2283078)
- run-parameters: primary human HUVEC with PBMC; actives raise or lower the signal
Activity calls are given as the source filed them. How the source made its calls: active means hit-call score of the fitted dose curve at least 0.9, where 1 is the maximum; inactive means score below 0.9.
Pick from active, inactive when you respond.

compound=Oc1cccc(-c2ccccc2)c1 assigned_label=inactive
compound="Cc1cc(Cl)ccc1OC(C)C(=O)O (centres undefined)" assigned_label=inactive
compound=O=C(CCl)NCO assigned_label=active
compound=CN(C)C(=S)S assigned_label=inactive
compound=COCC(=O)N(c1c(C)cccc1C)[C@H](C)C(=O)OC assigned_label=inactive

Query string: What did the test return for CC(C)(COCC1CO1)COCC1CO1 (centres undefined) ?
Result string: inactive

Query string: What did the test return for CCCCOC(=O)COC(=O)c1ccccc1C(=O)OCCCC ?
Result string: inactive

Query string: What did the test return for COc1ccccc1N ?
Result string: inactive

Query string: What did the test return for CC(C)(C)c1cc([N+](=O)[O-])cc(C(C)(C)C)c1O ?
Result string: inactive

Query string: What did the test return for CCOC(=O)C(SP(=S)(OC)OC)c1ccccc1 (centres undefined) ?
Result string: inactive

Query string: What did the test return for N#Cc1cccnc1 ?
Result string: inactive

Query string: What did the test return for O=c1oc2ccccc2c(O)c1C(CC(O)c1ccc(-c2ccc(Br)cc2)cc1)c1ccccc1 (centres undefined) ?
Result string: active

Query string: What did the test return for O=C(O)COc1cc(Cl)c(Cl)cc1Cl ?
Result string: inactive

Query string: What did the test return for OC(Cc1ccccc1Cl)(Cn1[nH]cnc1=S)C1(Cl)CC1 (centres undefined) ?
Result string: inactive

* * *

- test-method-notes: IUF_NPC1_viability_72hr: Viability Assessment at 72 hours in the Leibniz Research Institute for Environmental Medicine (IUF) Neural Progenitor Cell Proliferation Assay (NPC1) (AID 2284209)
Activity calls are given as the source filed them. Rule for the calls: active = hit-call score of the fitted dose curve at least 0.9, where 1 is the maximum; inactive = score below 0.9.
Pick from active, inactive when you respond.

molecule=CC1(C)[C@H](C(=O)O[C@H](C#N)c2cccc(Oc3ccccc3)c2)[C@@H]1/C=C(\Cl)C(F)(F)F assigned_label=inactive
molecule="O=S1OC[C@@H]2[C@H](CO1)[C@]1(Cl)C(Cl)=C(Cl)[C@@]2(Cl)C1(Cl)Cl (some centres not stated)" assigned_label=active
molecule="OC(Cc1ccccc1Cl)(Cn1[nH]cnc1=S)C1(Cl)CC1 (configuration not stated)" assigned_label=inactive

Query string: What did the test return for CCOCn1c(-c2ccc(Cl)cc2)c(C#N)c(Br)c1C(F)(F)F ?
Result string: active

Query string: What did the test return for Cc1cc(C(F)(C(F)(F)F)C(F)(F)F)ccc1NC(=O)c1cccc(I)c1C(=O)NC(C)(C)CS(C)(=O)=O ?
Result string: inactive

Query string: What did the test return for CNC(=O)CSP(=O)(OC)OC ?
Result string: inactive

Query string: What did the test return for CC(C)[C@@H](Nc1ccc(C(F)(F)F)cc1Cl)C(=O)OC(C#N)c1cccc(Oc2ccccc2)c1 (some centres not stated) ?
Result string: inactive

* * *

- test-method-notes: ATG_NRF2_ARE_CIS: Attagene CIS-FACTORIAL HepG2 Assay for human Nuclear Factor Erythroid 2 Related Factor 2 (NFR2) response to Antioxidant Response Elements (ARE) (AID 2282992)
- run-parameters: HepG2 Attagene ARE/NRF2 reporter, transcription factor activity; actives raise or lower the signal
The source made the active and inactive calls. How the source made its calls: active means hit-call score of the fitted dose curve at least 0.9, where 1 is the maximum; inactive means score below 0.9.
Pick from active, inactive when you respond.

compound=OC[C@@H](O)[C@H]1O[C@@H]2O[C@H](C(Cl)(Cl)Cl)O[C@@H]2[C@H]1O assigned_label=inactive
compound=CC(=O)C(F)(F)C(F)(F)F assigned_label=inactive
compound=ClCCCCl assigned_label=inactive
compound=CCOP(=O)(OCC)SCCSCC assigned_label=inactive
compound=c1csc(-c2ccc(-c3cccs3)s2)c1 assigned_label=active

Query string: What did the test return for O=C(O)c1cc(I)cc(I)c1I ?
Result string: active

Query string: What did the test return for CCCCCCCCBr ?
Result string: inactive

Query string: What did the test return for CCCCCCCCCCCCCl ?
Result string: inactive
